measurement-kind: melting point

Here are 3 compounds together with their reported answers.
INSERT INTO results (compound, measurement_kind, obs_value) VALUES
  ('COC(=O)Cc1nn(Cc2ccc(Br)cc2F)c(=O)c2ccccc12', 'melting point', '151 to 153 °C'),
  ('Cc1cc(Cl)ccc1-n1c(CF)nc2ccc(N)cc2c1=O', 'melting point', '191 to 193 °C'),
  ('CSc1ccc2c(c1)C(O)c1ccccc1C=C2 (stereo not given)', 'melting point', '117 to 118 °C');

Input line: melting point for C=C1COc2c(N3CCC(NC(=O)OC(C)(C)C)C3)c(F)cc3c(=O)c(C(=O)O)cn1c23 (stereo not given) ?
Output line: 219 to 220 °C

Input line: Same question for CC(=O)NCc1nc2c(N)nc3cccnc3c2n1CC(C)(C)O please.
Output line: 198 to 200 °C

====

Below: a set of entries, each annotated with reported melting point.

Here are 6 molecules together with their reported answers.
INSERT INTO assay_data (molecule, measurement_kind, obs_value) VALUES
  ('CCNc1nc(N)nc2c1ncn2C1CC(N=[N+]=[N-])C(CO)O1 (stereo not drawn)', 'melting point', '199 to 201 °C'),
  ('CCOC(=O)c1c(N[C@H]2CC[C@@H](c3ccccc3)CC2)ccnc1C', 'melting point', '191 °C'),
  ('Cc1cccc(-n2nc(C(F)(F)F)cc2-c2ccc(S(C)(=O)=O)c(F)c2)c1', 'melting point', '129 to 130 °C'),
  ('Cc1cccc(NC(=O)NCC(=O)N(c2ccccc2)C(C(=O)N2CCCC2)c2ccccc2)c1 (racemic)', 'melting point', '138 °C'),
  ('Cc1cn(COCCO)c(=O)[nH]c1=O', 'melting point', '138 to 140 °C'),
  ('O=C(CBr)Nc1ccc(O)cc1C(=O)O', 'melting point', '213 to 215 °C');

Input line: melting point for O=c1c2c(CBr)c(-c3ccc([N+](=O)[O-])cc3)sc2n(Cc2c(F)cccc2F)c(=O)n1-c1ccccc1 ?
Output line: 228 to 229 °C

Input line: Same question for Clc1cccc(N2CCN(c3nc4cccccc-4n3)CC2)c1 please.
Output line: 217 to 219 °C

Input line: Same question for CC(C)c1cccc(CO)c1NC(=O)CC1c2ccccc2Oc2ccccc21 please.
Output line: 155 to 156 °C

Input line: Same question for CC(C)(C)C(=O)OCOC(=O)Cn1c(=O)c2cc(Cl)ccc2n(Cc2ccc(Cl)c(Cl)c2)c1=O please.
Output line: 124 to 126 °C

Input line: Same question for Cc1sc2ncc(C(O)C=Cc3ccccc3)n2c1C (stereo not drawn) please.
Output line: 149 to 151 °C

Input line: Same question for COCCNc1cc(Cl)cc(NCCOC)c1[N+](=O)[O-] please.
Output line: 90 °C

Input line: Same question for CCCCC(=O)N(Cc1ccc(-c2ccccc2-c2nnn[nH]2)cc1)C(C(=O)OCc1ccccc1)C(C)C (stereo not drawn) please.
Output line: 106 to 108 °C

====

Below: a set of entries, each annotated with reported melting point.

INSERT INTO results (molecule, measurement_kind, obs_value) VALUES
  ('Cc1cc(O)c(SCc2cccc(F)c2)c(=O)o1', 'melting point', '124 °C'),
  ('N#Cc1ccc2c(c1)C(=C(Cl)Cl)OC(C(Cl)(Cl)Cl)O2 (configuration not stated)', 'melting point', '125 to 126 °C'),
  ('O=C(CCl)c1csc(C(=O)CCl)c1', 'melting point', '154 to 155 °C'),
  ('CC(C)OC(=O)OC1Oc2ccc(OS(=O)(=O)N(C)C)cc2C1(C)C (configuration not stated)', 'melting point', '95 to 96 °C'),
  ('COc1ccnc(CCc2nc3cc(-c4ccc(S(=O)(=O)N5CCN(c6ccc(C)cc6)CC5)cc4)cnc3[nH]2)c1', 'melting point', '150 to 154 °C'),
  ('CC(C)(C)OC(=O)NC(Cc1ccc(OCc2ccccc2)cn1)C(=O)NCc1ccc(C(=O)NO)cc1 (configuration not stated)', 'melting point', '106 to 108 °C');

// next item, melting point requested
Input line: melting point for C(=Cc1ccccc1)CN1CCN(C(c2ccccc2)c2ccccc2)CC1 ?
Output line: 110 °C

This collection of values is drawn from a melting point compilation (Tetko et al.; mined from patent text by program, amines drawn as free bases though some values may be those of a salt).
